- system name: EGFR kinase (Homo sapiens)
- Sequence (P00533 25-1210): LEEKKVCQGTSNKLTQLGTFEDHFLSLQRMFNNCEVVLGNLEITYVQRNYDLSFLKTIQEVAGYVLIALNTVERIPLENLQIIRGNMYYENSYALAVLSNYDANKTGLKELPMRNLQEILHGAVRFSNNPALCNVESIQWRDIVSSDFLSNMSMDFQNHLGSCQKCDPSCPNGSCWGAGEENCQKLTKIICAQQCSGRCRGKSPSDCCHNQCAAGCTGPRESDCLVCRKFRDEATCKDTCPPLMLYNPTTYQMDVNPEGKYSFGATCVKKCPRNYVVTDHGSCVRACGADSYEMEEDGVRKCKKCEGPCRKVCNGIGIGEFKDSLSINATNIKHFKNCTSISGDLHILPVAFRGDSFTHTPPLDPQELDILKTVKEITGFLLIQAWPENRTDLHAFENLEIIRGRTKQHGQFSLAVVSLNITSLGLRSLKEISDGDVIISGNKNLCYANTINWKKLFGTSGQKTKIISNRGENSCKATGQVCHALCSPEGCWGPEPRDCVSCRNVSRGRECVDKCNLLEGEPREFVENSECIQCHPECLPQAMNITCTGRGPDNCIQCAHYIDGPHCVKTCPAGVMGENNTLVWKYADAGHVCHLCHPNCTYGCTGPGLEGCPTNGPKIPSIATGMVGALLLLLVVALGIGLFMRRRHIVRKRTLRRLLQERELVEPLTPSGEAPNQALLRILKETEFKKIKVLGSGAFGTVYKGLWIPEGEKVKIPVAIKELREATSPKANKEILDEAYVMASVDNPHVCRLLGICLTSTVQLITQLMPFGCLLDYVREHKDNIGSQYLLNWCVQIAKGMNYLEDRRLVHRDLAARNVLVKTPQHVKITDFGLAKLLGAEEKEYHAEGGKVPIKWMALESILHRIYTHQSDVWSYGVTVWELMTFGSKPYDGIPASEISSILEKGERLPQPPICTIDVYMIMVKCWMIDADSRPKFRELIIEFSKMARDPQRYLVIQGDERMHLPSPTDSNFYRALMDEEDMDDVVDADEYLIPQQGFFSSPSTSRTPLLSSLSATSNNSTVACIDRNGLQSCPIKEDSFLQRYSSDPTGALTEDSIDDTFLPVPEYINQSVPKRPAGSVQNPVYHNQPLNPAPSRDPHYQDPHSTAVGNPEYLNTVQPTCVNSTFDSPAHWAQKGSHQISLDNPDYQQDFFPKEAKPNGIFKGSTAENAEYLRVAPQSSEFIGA
Criterion: IC50 strictly under 4 µM. Met: class 1. Not met: class 0.

compound	assigned class
O=C(Nc1ccc(NS(=O)(=O)c2c[nH]c(=O)[nH]c2=O)cc1)Nc1ccccc1Cl [Compound L13d]	class 0
Cc1cccc(NC(=O)Nc2cccc(NS(=O)(=O)c3c[nH]c(=O)[nH]c3=O)c2)c1 [Compound L15h]	class 0
Cc1ccccc1NC(=O)Nc1cccc(NS(=O)(=O)c2c[nH]c(=O)[nH]c2=O)c1 [Compound L15g]	class 0
O=C(NNC(=O)c1ccccc1NS(=O)(=O)c1c[nH]c(=O)[nH]c1=O)c1cccc(Cl)c1 [Compound 10l, reference compound]	class 1
O=C(Nc1cccc(NS(=O)(=O)c2c[nH]c(=O)[nH]c2=O)c1)Nc1ccccc1Cl [Compound L15d]	class 0
O=C(Nc1ccccc1Cl)Nc1ccccc1NS(=O)(=O)c1c[nH]c(=O)[nH]c1=O [Compound L14d]	class 1
Cc1ccccc1NC(=O)Nc1ccccc1NS(=O)(=O)c1c[nH]c(=O)[nH]c1=O [Compound L14g]	class 0
Cc1ccc(NC(=O)Nc2ccccc2NS(=O)(=O)c2c[nH]c(=O)[nH]c2=O)cc1 [Compound L14i]	class 0
Cc1ccc(NC(=O)Nc2ccc(NS(=O)(=O)c3c[nH]c(=O)[nH]c3=O)cc2)cc1 [Compound L13i]	class 0
Cc1ccccc1NC(=O)Nc1ccc(NS(=O)(=O)c2c[nH]c(=O)[nH]c2=O)cc1 [Compound L13g]	class 0

Would you kindly look at the next entry?
-- ask IC50 under 4 µM? Item: O=C(Nc1ccc(NS(=O)(=O)c2c[nH]c(=O)[nH]c2=O)cc1)Nc1cccc(Cl)c1 [Compound L13e]
-- reply class 0

* * *

Assay read-out IC50; system under study: BRaf kinase (Homo sapiens).
Sequence (P15056 whole entry): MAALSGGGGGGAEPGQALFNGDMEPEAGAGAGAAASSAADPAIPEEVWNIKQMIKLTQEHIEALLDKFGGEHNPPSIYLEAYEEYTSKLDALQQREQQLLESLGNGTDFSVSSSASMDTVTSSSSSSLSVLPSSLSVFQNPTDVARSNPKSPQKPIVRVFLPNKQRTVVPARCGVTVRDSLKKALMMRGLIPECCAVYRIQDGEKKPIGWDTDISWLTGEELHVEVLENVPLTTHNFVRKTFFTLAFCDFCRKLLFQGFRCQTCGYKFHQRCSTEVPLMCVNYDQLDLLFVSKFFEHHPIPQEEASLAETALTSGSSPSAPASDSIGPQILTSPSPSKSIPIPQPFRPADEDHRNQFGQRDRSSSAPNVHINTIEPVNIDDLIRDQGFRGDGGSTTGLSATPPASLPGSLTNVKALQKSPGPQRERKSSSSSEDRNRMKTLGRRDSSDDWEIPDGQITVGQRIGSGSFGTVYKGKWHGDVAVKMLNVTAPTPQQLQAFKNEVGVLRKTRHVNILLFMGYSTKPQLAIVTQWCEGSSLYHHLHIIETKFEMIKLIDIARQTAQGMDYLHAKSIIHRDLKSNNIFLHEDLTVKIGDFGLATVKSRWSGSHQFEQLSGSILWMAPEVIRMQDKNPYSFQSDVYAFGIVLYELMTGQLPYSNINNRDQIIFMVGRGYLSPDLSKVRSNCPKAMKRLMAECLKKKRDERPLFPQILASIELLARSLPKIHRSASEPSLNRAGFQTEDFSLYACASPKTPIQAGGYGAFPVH
Answers are plain numbers, in nM.

These solved cases illustrate the format of a correct answer.
molecule	system name	IC50 [nM]
Cc1ccc(NC(=O)Nc2ccccc2NS(=O)(=O)c2c[nH]c(=O)[nH]c2=O)cc1 [Compound L14i]	BRaf kinase (Homo sapiens)	5450
Cc1cccc(NC(=O)Nc2ccc(NS(=O)(=O)c3c[nH]c(=O)[nH]c3=O)cc2)c1 [Compound L13h]	BRaf kinase (Homo sapiens)	3530
O=C(Nc1ccccc1Cl)Nc1ccccc1NS(=O)(=O)c1c[nH]c(=O)[nH]c1=O [Compound L14d]	BRaf kinase (Homo sapiens)	1620
O=C(Nc1ccc(Cl)cc1)Nc1ccccc1NS(=O)(=O)c1c[nH]c(=O)[nH]c1=O [Compound L14f]	BRaf kinase (Homo sapiens)	1710

Batch lookup, IC50 per entry.
1. O=C(Nc1cccc(Cl)c1)Nc1cccc(NS(=O)(=O)c2c[nH]c(=O)[nH]c2=O)c1 [Compound L15e]
2. O=C(Nc1cccc(Cl)c1)Nc1ccccc1NS(=O)(=O)c1c[nH]c(=O)[nH]c1=O [Compound L14e]
3. Cc1ccccc1NC(=O)Nc1ccccc1NS(=O)(=O)c1c[nH]c(=O)[nH]c1=O [Compound L14g]

-- reply
[2960, 1090, 7410]

* * *

Let's go through some recorded pIC50 values for UniProt P15056 together.
Numbers only, as −log10 of the molar value.

compound	system name	observed measurement
O=C(Nc1ccc(NS(=O)(=O)c2c[nH]c(=O)[nH]c2=O)cc1)Nc1ccccc1Cl [Compound L13d]	UniProt P15056	5.62

Value sought for every listed compound: pIC50.
1. O=C(Nc1ccc(NS(=O)(=O)c2c[nH]c(=O)[nH]c2=O)cc1)Nc1cccc(Cl)c1 [Compound L13e]
2. O=C(Nc1ccc(Cl)cc1)Nc1ccc(NS(=O)(=O)c2c[nH]c(=O)[nH]c2=O)cc1 [Compound L13f]
3. Cc1cccc(NC(=O)Nc2ccccc2NS(=O)(=O)c2c[nH]c(=O)[nH]c2=O)c1 [Compound L14h]
4. O=C(Nc1cccc(NS(=O)(=O)c2c[nH]c(=O)[nH]c2=O)c1)Nc1ccccc1Cl [Compound L15d]
5. O=C(NNC(=O)c1ccccc1NS(=O)(=O)c1c[nH]c(=O)[nH]c1=O)c1cccc(Cl)c1 [Compound 10l, reference compound]

-- reply
5.44
5.44
5.44
5.39
5.78
